- measurement.protocol: qHTS assay to identify small molecule agonists of the sonic hedgehog signaling (Shh) pathway - cell viability counter screen (AID 1259366); further: nearly all actives have a fitted effect of over 50% in size; further: potency means the concentration at half of the fitted maximal effect
- test.context: NIH/3T3 Gli1-Luc viability, CellTiter-Fluor, 24 h; series mostly up to 92.4 µM
Results filed as inconclusive are left out. The source made the active and inactive calls. The call rests on the fitted dose curve; in most records, active means well fitted cell-killing curve with a large enough effect in the repeat runs; inconclusive means weak or mixed curves, or effect the other way; inactive means flat fitted curve, though single readings scatter.
property.name: Potency

[[record]]
molecule = "O=[N+]([O-])c1ccccc1Nc1ccccc1"
property_name = "Potency"
result = "inactive"

[[record]]
molecule = "CCCN(CCC)C(=O)C(CCC(=O)OCCCN1CCN(CCOC(=O)Cc2c(C)n(C(=O)c3ccc(Cl)cc3)c3ccc(OC)cc23)CC1)NC(=O)c1ccccc1 (centres undefined)"
property_name = "Potency"
result = "11.9 µM (active)"

[[record]]
molecule = "CNC(=O)c1ccccc1"
property_name = "Potency"
result = "inactive"

[[record]]
molecule = "CC(C)(C)C(=O)OCOC(=O)C1N2C(=O)CC2S(=O)(=O)C1(C)C (centres undefined)"
property_name = "Potency"
result = "inactive"

[[record]]
molecule = "CCCCCCCCCCCCCC[P+](CCCC)(CCCC)CCCC (tested in a mixture with another compound)"
property_name = "Potency"
result = "27.5 µM (active)"

[[record]]
molecule = "Oc1cccc2cc3cccc(O)c3c(O)c12"
property_name = "Potency"
result = "inactive"

[[record]]
molecule = "CCCCCCCCCCn1cc[n+](CCCCCCCCCC)c1C"
property_name = "Potency"
result = "27.3 µM (active)"

[[record]]
molecule = "Cc1onc(-c2ccccc2Cl)c1C(=O)N[C@@H]1C(=O)N2[C@@H]1SC(C)(C)[C@@H]2C(=O)O"
property_name = "Potency"
result = "inactive"

[[record]]
molecule = "O=c1cccccc1O"
property_name = "Potency"
result = "55.5 µM (active)"

[[record]]
molecule = "O=C(c1ccc(F)cc1)C1CCN(CCn2c(=O)[nH]c3ccccc3c2=O)CC1"
property_name = "Potency"
result = "inactive"

[[record]]
molecule = "NC(=O)N1C(=O)C(C(=O)c2cc(Cl)cs2)c2cc(F)c(Cl)cc21 (centres undefined)"
property_name = "Potency"
result = "27.3 µM (active)"

[[record]]
molecule = "Cc1[nH]nc2c1N=C(c1ccccc1Cl)c1cc([N+](=O)[O-])ccc1N2"
property_name = "Potency"
result = "13.7 µM (active)"

[[record]]
molecule = "CCCCCCCC[N+](CCCCCCCC)(CCCCCCCC)CCCCCCCC"
property_name = "Potency"
result = "17.2 µM (active)"

[[record]]
molecule = "N#CSc1ccc(N)c([N+](=O)[O-])c1"
property_name = "Potency"
result = "69 µM (active)"

[[record]]
molecule = "C[n+]1cc2c3c(ccc2c2ccc4cc5c(cc4c21)OCO5)OCO3"
property_name = "Potency"
result = "1.64 µM (active)"

[[record]]
molecule = "CCCCCCCCCCCCCCCCCC[N+](C)(C)C"
property_name = "Potency"
result = "68.8 µM (active)"

[[record]]
molecule = "Cc1c(C)c2c(c(C)c1OC(=O)CCC(=O)O)CC[C@@](C)(CCC[C@H](C)CCC[C@H](C)CCCC(C)C)O2"
property_name = "Potency"
result = "inactive"

[[record]]
molecule = "O=c1[nH]cnc2nc[nH]c12"
property_name = "Potency"
result = "inactive"

[[record]]
molecule = "C/C=C(\\C)C(=O)OCc1ccccc1"
property_name = "Potency"
result = "inactive"

[[record]]
molecule = "Nc1ccccc1O"
property_name = "Potency"
result = "24 µM (active)"

[[record]]
molecule = "CNc1ccc(O)cc1"
property_name = "Potency"
result = "12.2 µM (active)"

[[record]]
molecule = "CCCCCCCCNC(C)C(O)c1ccc(SC(C)C)cc1 (centres undefined)"
property_name = "Potency"
result = "16.8 µM (active)"

[[record]]
molecule = "CCC(C)(C)C1CCCCC1OC(C)=O (centres undefined)"
property_name = "Potency"
result = "inactive"

[[record]]
molecule = "CCCCCCCCCCCCCCCCCC[N+](C)(C)Cc1ccccc1"
property_name = "Potency"
result = "24.6 µM (active)"


Attribution: PubChem BioAssay (Tox21)
